Tested on: Blood
procedure-details: Ratio of drug level in HIV-seronegative healthy volunteers blood at 400 mg after 12 hrs, po administered as single dose in presence of albuminium, magnesium and simethicone-containg antacid to drug level in HIV-seronegative healthy volunteers blood at 400 mg after 12 hrs, po administered as single dose
Assay type: ADME, organism-based
condition-label: human, in vivo
reported-endpoint: Ratio

In: Find the recorded Ratio belonging to Cc1nnc(C(=O)NC(C)(C)c2nc(C(=O)NCc3ccc(F)cc3)c(O)c(=O)n2C)o1 and report it.
Out: 0.33

----------
procedure-details: Drug level in HIV-seronegative healthy volunteers blood at 400 mg, po administered as single dose after 12 hrs by LC-MS/MS in presence of albuminium, magnesium and simethicone-containg antacid
Type: ADME, organism-based
condition-label: human, read-out: Drug uptake
reported-endpoint: concentration at 12 h (ng/mL)
Give bare numbers, in ng/mL.

In: For Cc1nnc(C(=O)NC(C)(C)c2nc(C(=O)NCc3ccc(F)cc3)c(O)c(=O)n2C)o1 , what is its reported concentration at 12 h?
Out: 13
